These measurements were taken from patent US20210139581A1.

target: T1, human CD33 (human, UniProt P20138 18-259, limits assumed); test: SPR (BIAcore), Fab over CD33 on C1 chip
T1 construct: Human CD33 immobilized on the BLI sensor tip or the BIAcore C1 chip; also called Siglec-3
T1 sequence (P20138 18-259 limits assumed): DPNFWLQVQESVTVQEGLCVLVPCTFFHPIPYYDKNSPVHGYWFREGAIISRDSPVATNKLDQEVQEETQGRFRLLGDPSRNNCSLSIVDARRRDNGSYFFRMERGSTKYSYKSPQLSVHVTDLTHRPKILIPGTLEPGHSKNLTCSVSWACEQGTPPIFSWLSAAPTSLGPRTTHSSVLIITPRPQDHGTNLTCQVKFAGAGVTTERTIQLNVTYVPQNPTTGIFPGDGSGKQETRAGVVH

binder: AB-H63 (antibody, V domains shown, Humanized variant of murine 2F5.1) VH: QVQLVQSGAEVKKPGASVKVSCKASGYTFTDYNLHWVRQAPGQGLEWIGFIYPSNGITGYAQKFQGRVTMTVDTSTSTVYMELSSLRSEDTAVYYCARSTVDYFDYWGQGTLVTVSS VL: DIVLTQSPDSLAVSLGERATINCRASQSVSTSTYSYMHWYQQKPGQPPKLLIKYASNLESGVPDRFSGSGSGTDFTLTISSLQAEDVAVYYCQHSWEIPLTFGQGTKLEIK
unit.spec: nM
Kd: 3.53

binder: AB-H71 (antibody, V domains shown, Humanized variant of murine 2F5.1; also called AB-71) VH: QVQLVQSGAELKKPGASVKVSCKASGYTFTDYNLHWVRQAPGQRLEWIGFIYPSNGITGYSQKFQGKATLTVDTSASTAYMELSSLRSEDTAVYYCARSTVDYFDYWGQGTTVTVSS VL: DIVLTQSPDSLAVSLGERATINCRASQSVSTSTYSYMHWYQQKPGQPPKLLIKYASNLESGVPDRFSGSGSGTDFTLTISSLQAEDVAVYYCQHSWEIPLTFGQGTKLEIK
unit.spec: nM
Kd: 1.88

binder: AB-H3 (antibody, V domains shown, Humanized variant of murine 2F5.1) VH: QVQLVQSGAEVKKPGASVKISCKASGYTFTDYNLHWVRQAPGQGLEWIGFIYPSNGITGYAQKFQGRATLTVDTSTSTAYMELSSLRSEDTAVYYCARSTVDYFDYWGQGTLLTVSS VL: DIQMTQSPSSLSASVGDRVTITCRASQSVSTSTYSYMHWYQQKPGKAPKLLIYYASNLESGVPSRFSGSGSGTDFTLTISSLQPEDFATYYCQHSWEIPLTFGQGTKLEIK
unit.spec: nM
Kd: 1.13

binder: AB-H26 (antibody, V domains shown, Humanized variant of murine 2F5.1; also called AB-26) VH: QVQLVQSGAEVKKPGASVKVSCKASGYTFTDYNLHWVRQAPGQRLEWIGFIYPSNGITGYSQKFQGRATLTVDTSASTAYMELSSLRSEDTAVYYCARSTVDYFDYWGQGTTVTVSS VL: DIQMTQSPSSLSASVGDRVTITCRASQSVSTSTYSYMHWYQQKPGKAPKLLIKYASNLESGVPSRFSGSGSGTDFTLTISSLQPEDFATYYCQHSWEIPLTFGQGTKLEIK
unit.spec: nM
Kd: 5.86
